- System Under Test: D42A (Caulobacter vibrioides, UniProt Q9A6C9, D42A)
- Construct: gene mipZ; hexahistidine-tagged, full length, overproduced in E. coli Rosetta2(DE3)pLysS
- Assay Overview: Stopped-flow FRET transient kinetics of mant-ATP binding to MipZ (excitation 297 nm, 360 nm cut-off) at 30 °C in 50 mM Hepes/NaOH pH 7.2, 50 mM KCl, 10 mM MgCl2, 1 mM β-mercaptoethanol; KD calculated as koff/kon, with koff from displacement by excess unlabeled nucleotide.
pKd: −log10 of the molar value.

{"columns": ["Molecule", "pKd"],
 "data": [
  ["CNc1ccccc1C(=O)O[C@H]1[C@@H](O)[C@H](n2cnc3c(N)ncnc32)O[C@@H]1CO[P@@](=O)(O)O[P@](=O)(O)OP(=O)(O)O [mant-ATP]", 4.24]
]}

* * *

- System Under Test: K13A (Caulobacter vibrioides, UniProt Q9A6C9, K13A)
- Construct: gene mipZ; hexahistidine-tagged, full length, overproduced in E. coli Rosetta2(DE3)pLysS; constitutively monomeric
- Assay Overview: Stopped-flow FRET transient kinetics of mant-ATP binding to MipZ (excitation 297 nm, 360 nm cut-off) at 30 °C in 50 mM Hepes/NaOH pH 7.2, 50 mM KCl, 10 mM MgCl2, 1 mM β-mercaptoethanol; KD calculated as koff/kon, with koff from displacement by excess unlabeled nucleotide.
pKd: −log10 of the molar value.
Quantity Name: pKd

{"columns": ["Smiles Str", "Quantity Name", "Number"],
 "data": [
  ["CNc1ccccc1C(=O)O[C@H]1[C@@H](O)[C@H](n2cnc3c(N)ncnc32)O[C@@H]1CO[P@@](=O)(O)O[P@](=O)(O)OP(=O)(O)O", "pKd", 4.42]
]}

* * *

- System Under Test: WT (MipZ) (Caulobacter vibrioides, UniProt Q9A6C9)
- Construct: hexahistidine-tagged, full length, overproduced in E. coli Rosetta2(DE3)pLysS
- Assay Overview: Stopped-flow FRET transient kinetics of mant-ATP binding to MipZ (excitation 297 nm, 360 nm cut-off) at 30 °C in 50 mM Hepes/NaOH pH 7.2, 50 mM KCl, 10 mM MgCl2, 1 mM β-mercaptoethanol; KD calculated as koff/kon, with koff from displacement by excess unlabeled nucleotide.
pKd: −log10 of the molar value.

{"columns": ["Molecule", "System Under Test", "pKd"],
 "data": [
  ["CNc1ccccc1C(=O)O[C@H]1[C@@H](O)[C@H](n2cnc3c(N)ncnc32)O[C@@H]1CO[P@@](=O)(O)O[P@](=O)(O)OP(=O)(O)O [mant-ATP]", "WT (MipZ) (Caulobacter vibrioides, UniProt Q9A6C9)", 4.51]
]}

* * *

- System Under Test: D42A (Caulobacter vibrioides, UniProt Q9A6C9, D42A)
- Construct: gene mipZ; hexahistidine-tagged, full length, overproduced in E. coli Rosetta2(DE3)pLysS
- Assay Overview: Stopped-flow FRET transient kinetics of mant-ADP binding to MipZ (excitation 297 nm, 360 nm cut-off) at 30 °C in 50 mM Hepes/NaOH pH 7.2, 50 mM KCl, 10 mM MgCl2, 1 mM β-mercaptoethanol; KD calculated as koff/kon, with koff from displacement by excess unlabeled nucleotide.
pKd: −log10 of the molar value.
Quantity Name: pKd

{"columns": ["Smiles Str", "Quantity Name", "Number"],
 "data": [
  ["CNc1ccccc1C(=O)O[C@H]1[C@@H](O)[C@H](n2cnc3c(N)ncnc32)O[C@@H]1COP(=O)(O)OP(=O)(O)O", "pKd", 4.16]
]}

* * *

- System Under Test: MipZ K13A
- Assay Overview: Transient kinetic analysis of mant nucleotide binding to MipZ K13A
- Conditions Used: calculated KD = koff/kon
Each entry below lists one item and its recorded Kd value.

{"columns": ["Smiles Str", "System Under Test", "Kd, µM"],
 "data": [
  ["CNc1ccccc1C(=O)O[C@H]1[C@@H](O)[C@H](n2cnc3c(N)ncnc32)O[C@@H]1COP(=O)(O)OP(=O)(O)O", "MipZ K13A", 41],
  ["CNc1ccccc1C(=O)O[C@H]1[C@@H](O)[C@H](n2cnc3c(N)ncnc32)O[C@@H]1CO[P@@](=O)(O)O[P@](=O)(O)OP(=O)(O)O", "MipZ K13A", 38]
]}

* * *

- System Under Test: K13A (Caulobacter vibrioides, UniProt Q9A6C9, K13A)
- Construct: gene mipZ; hexahistidine-tagged, full length, overproduced in E. coli Rosetta2(DE3)pLysS; constitutively monomeric
- Assay Overview: Stopped-flow FRET transient kinetics of mant-ADP binding to MipZ (excitation 297 nm, 360 nm cut-off) at 30 °C in 50 mM Hepes/NaOH pH 7.2, 50 mM KCl, 10 mM MgCl2, 1 mM β-mercaptoethanol; KD calculated as koff/kon, with koff from displacement by excess unlabeled nucleotide.
pKd: −log10 of the molar value.

{"columns": ["Compound", "System Under Test", "pKd"],
 "data": [
  ["CNc1ccccc1C(=O)O[C@H]1[C@@H](O)[C@H](n2cnc3c(N)ncnc32)O[C@@H]1COP(=O)(O)OP(=O)(O)O [mant-ADP]", "K13A (Caulobacter vibrioides, UniProt Q9A6C9, K13A)", 4.39]
]}

* * *

- System Under Test: G14V (Caulobacter vibrioides, UniProt Q9A6C9, G14V)
- Construct: gene mipZ; hexahistidine-tagged, full length, overproduced in E. coli Rosetta2(DE3)pLysS; constitutively monomeric
- Sequence (Q9A6C9 1-278 G14V): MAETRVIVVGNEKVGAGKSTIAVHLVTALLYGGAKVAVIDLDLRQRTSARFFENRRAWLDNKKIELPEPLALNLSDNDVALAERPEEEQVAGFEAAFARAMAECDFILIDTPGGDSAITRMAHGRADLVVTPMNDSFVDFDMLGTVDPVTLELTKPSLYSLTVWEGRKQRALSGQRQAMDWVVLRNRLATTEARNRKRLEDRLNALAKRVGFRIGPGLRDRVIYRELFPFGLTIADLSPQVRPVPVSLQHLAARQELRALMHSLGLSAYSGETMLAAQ
- Assay Overview: Stopped-flow FRET transient kinetics of mant-ADP binding to MipZ (excitation 297 nm, 360 nm cut-off) at 30 °C in 50 mM Hepes/NaOH pH 7.2, 50 mM KCl, 10 mM MgCl2, 1 mM β-mercaptoethanol; KD calculated as koff/kon, with koff from displacement by excess unlabeled nucleotide.
pKd: −log10 of the molar value.

{"columns": ["Compound", "pKd"],
 "data": [
  ["CNc1ccccc1C(=O)O[C@H]1[C@@H](O)[C@H](n2cnc3c(N)ncnc32)O[C@@H]1COP(=O)(O)OP(=O)(O)O [mant-ADP]", 5.35]
]}
